- targetOrSystem: hAT2R (Homo sapiens)
- Sequence (P50052 1-363): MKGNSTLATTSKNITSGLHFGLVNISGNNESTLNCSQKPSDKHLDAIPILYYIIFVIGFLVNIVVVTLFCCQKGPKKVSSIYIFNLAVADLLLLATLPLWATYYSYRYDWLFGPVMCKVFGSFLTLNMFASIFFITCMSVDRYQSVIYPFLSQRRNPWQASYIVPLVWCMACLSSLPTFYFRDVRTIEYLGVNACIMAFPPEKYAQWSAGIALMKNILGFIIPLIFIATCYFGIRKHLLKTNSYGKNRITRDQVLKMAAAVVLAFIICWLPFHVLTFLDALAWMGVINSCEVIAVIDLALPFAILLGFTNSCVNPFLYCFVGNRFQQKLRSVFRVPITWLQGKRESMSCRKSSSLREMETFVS
- Format: binding
outcomeMeasure: IC50

Looking for the measured IC50 of `CCCCOC(=O)NS(=O)(=O)c1sc(CC(C)C)cc1-c1cccc2c1CN(C(C)=O)C2` , can you help? > 3 µM
